Tested on: NCI-H460 lung
measurement-protocol: NCI-60 one-dose screen, 48 h
condition-info: 10 µM unless noted
Experimental: Growth inhibition of the NCI-H460 human Non-Small Cell Lung tumor cell line is measured as a screen for anti-cancer activity. Cells are grown in 96 well plates and exposed to the test compound for 48 hours. Compounds are tested at a single concentration, which is 10^-5 M for most compounds. The reported endpoint is percent growth (GI% or GIPRCNT), where numbers from 0 - 100% represent growth inhibition, and numbers from -100% - 0 represent cell death. […]
This is part of a sample that, as a whole, favours compounds with a hit. Of some 83,000 tested, about 20% had one in any assay. The source made the active and inactive calls. The calls were made as follows: active = growth percent below 10; inactive = the rest.
Outcomes: label 1 for active, label 0 for inactive

compound: COc1cc(NCC(O)CN(CC(C)C)CC(C)C)c2ncccc2c1 (centres undefined)
assigned-label: label 0
--
compound: CS(=O)(=O)c1ccc(C(=O)N/N=C/c2ccccc2O)cc1
assigned-label: label 0
--
compound: COc1ccc(C2NC(=O)c3cc4c(cc3N2)OCO4)cc1 (centres undefined)
assigned-label: label 1
--
compound: C=C1C(=O)O[C@H]2[C@H]1CC/C(COC(=O)NCc1cn(C)c3ccccc13)=C\CC[C@@]1(C)O[C@@H]21
assigned-label: label 1
--
compound: COc1ccc(/C=C(\C#N)c2cc(OC)c(OC)c(OC)c2)cc1
assigned-label: label 1
--
compound: CCOC(=O)c1ccc2c(c1)nc(-c1ccc(Cl)cc1)n2-c1cc(C(C)(C)C)[nH]n1
assigned-label: label 0
--
compound: CCOC(=O)C1C(=O)C=C(c2cc(OC)c(OC)c(OC)c2)CC1c1sc(N(C)Cc2ccccc2)nc1Cl (centres undefined)
assigned-label: label 0
--
compound: Cc1csc(N/N=C/c2ccncc2)n1
assigned-label: label 0
--
compound: O=C(c1ccccc1)C(CCc1ccccn1)CCc1ccccn1
assigned-label: label 0
--
compound: CC(C)OC1OC(OC(C)C)C(OC(C)C)OC1OC(C)C (centres undefined)
assigned-label: label 0
--
compound: O=[N+]([O-])c1ccc(N/N=C/c2ccccc2O)nc1
assigned-label: label 0
--
compound: COc1cccc(/C(C)=N/NC(=O)CSc2nc3ccccc3c(=O)n2CCc2ccc(S(N)(=O)=O)cc2)c1
assigned-label: label 1
--
compound: COc1cc(Cl)cc(-c2nn(C(=O)NCCN3CCOCC3)cc2-c2ccncc2)c1
assigned-label: label 0
--
compound: O=C(CC(=O)c1cccc(Cl)c1)c1cccc(Cl)c1
assigned-label: label 0

---

Tested on: SK-MEL-28 melanoma
measurement-protocol: NCI-60 one-dose screen, 48 h
condition-info: 10 µM unless noted
About 83,000 compounds went through this panel and 20% of them were active in at least one assay; those are over-represented in the sample as a whole. Calls of active or inactive are those of the source. How the source made its calls: active means growth percent below 10; inactive means the rest.
Outcomes: label 1 = active, label 0 = inactive

compound: CCN(CCC#N)c1ccccc1
assigned-label: label 0
//
compound: CC(SC(C)C(=O)N/N=C/c1cccc(Cl)c1)C(=O)N/N=C\c1cccc(Cl)c1 (centres undefined)
assigned-label: label 0
//
compound: O=[N+]([O-])c1ccc(SSc2ccc([N+](=O)[O-])cc2Cl)c(Cl)c1
assigned-label: label 0
//
compound: CCOC(=O)C#Cc1c(C(=O)OCC)nnn1[C@@H]1O[C@H](COC(C)=O)[C@@H](OC(C)=O)[C@H]1OC(C)=O
assigned-label: label 0
//
compound: COc1cc(OC)c(C(=O)/C=C/c2cccc(OC(C)=O)c2)cc1CC=C(C)C
assigned-label: label 0
//
compound: CCC1=CC2CN(C1)Cc1c([nH]c3ccccc13)[C@@](C(=O)OC)(c1cc3c(cc1OC)N(C)[C@H]1[C@@](O)(C(=O)OC)[C@H](OC(C)=O)[C@]4(CC)C=CCN5CC[C@]31[C@@H]54)C2 (some centres undefined)
assigned-label: label 0
//
compound: CC(C)(C)c1ccc(C(=O)Nc2sc3cc(O)ccc3c2C(N)=O)cc1
assigned-label: label 0
//
compound: COc1cnc2c(c1)C(=O)c1c-2n(CCCN2CCCC2)c(=O)c2cc(Cl)ccc12
assigned-label: label 0
//
compound: CCOC(=O)Cn1c(-c2nonc2NC(=O)c2ccccc2F)nc2ccccc21
assigned-label: label 0
//
compound: COc1ccc(N=C2CSc3nnc(-c4cc(F)c(Cl)cc4Cl)n3N2)cc1
assigned-label: label 1
//
compound: O=C(N/N=C/c1ccc([N+](=O)[O-])o1)c1ccc(O)cc1
assigned-label: label 0
//
compound: COc1ccc2nc3cc(Cl)ccc3c(NC(=O)CSc3ccc(Cl)cc3)c2c1
assigned-label: label 1
//
compound: COc1ccccc1/C=N\Nc1ccc([N+](=O)[O-])cn1
assigned-label: label 0
//
compound: CCN(CC)CC(=O)Nc1c(C)cc(C(=O)NN)cc1C
assigned-label: label 0
//
compound: COc1cccc(/C=N\Nc2ccc([N+](=O)[O-])cn2)c1O
assigned-label: label 0
//
compound: COc1cnc2c(c1)C(=O)c1c-2n(CCCNC(C)C)c(=O)c2cc(Cl)ccc12
assigned-label: label 1
//
compound: Cn1cnc([N+](=O)[O-])c1S(=O)(=O)Oc1ccccc1
assigned-label: label 0
//
compound: FC(F)(F)c1nn[nH]n1
assigned-label: label 0
//
compound: C=C1C(=O)O[C@H]2[C@H]1CC/C(COC(=O)NCc1c[nH]c3ccc(OC)cc13)=C\CC[C@@]1(C)O[C@@H]21
assigned-label: label 1
//
compound: Clc1ccc(-c2cnc3c(-c4ccnc(N5CCNCC5)c4)cnn3c2)cc1
assigned-label: label 1
//
compound: O=C1OCC2=C1C(c1ccccc1)c1cc3c(cc1N2CCO)OCO3 (centres undefined)
assigned-label: label 0
//
compound: O=c1c2cc(Br)cc(Br)c2nc(-c2ccc(Cl)cc2)n1/N=C\c1ccccc1F
assigned-label: label 0
//
compound: COc1cc(-c2nn(C(=O)NCCN3CCN(C)CC3)cc2-c2ccncc2)ccc1Cl
assigned-label: label 0
//
compound: CC(=O)Oc1c(Cl)c(Cl)c(Cl)c(Cl)c1Cl
assigned-label: label 0
//
compound: O=[N+]([O-])c1ccc(N/N=C\c2ccc(O)cc2O)nc1
assigned-label: label 0
//
compound: O=C(c1ccc(OCCN2CCCCC2)cc1)c1c(-c2ccc(O)cc2)sc2cc(O)ccc12
assigned-label: label 0
//
compound: CN(C)N1C(=O)c2c(Cl)c(Cl)c(Cl)c(Cl)c2C1=O
assigned-label: label 0
//
compound: C=CCOc1ccc2c(C)cc(=O)oc2c1
assigned-label: label 0
//
compound: COc1ccc(-n2c(COc3ccc(F)cc3)n[nH]c2=S)cc1
assigned-label: label 0
//
compound: CCOC(=O)C1=C(C(=O)OCC)N(c2cc(OC)c(OC)c(OC)c2)C(N)=C(C#N)C1c1cc(=O)[nH]c2ccccc12 (centres undefined)
assigned-label: label 0
//
compound: c1cc(C2CCCCC2)ccc1-c1cnc2nonc2n1
assigned-label: label 0
//
compound: CCn1c(Cc2ccccc2Nc2c(Cl)cccc2Cl)nnc1SCC(=O)Nc1ccccc1C(F)(F)F
assigned-label: label 0
//
compound: O=[N+]([O-])c1ccc(Sc2nc(Cl)nc(NC3CCCC3)n2)cc1
assigned-label: label 1
//
compound: COc1ccc2[nH]cc(C3(c4c[nH]c5ccc(OC)cc45)C(=O)Nc4ccc(Cl)cc43)c2c1
assigned-label: label 0
